Data origin, for the record: patent US20250099423A1

# system under test: LFA-1 (Homo sapiens, UniProt P05107+P20701)
# Construct: The Jurkat (VCAM-1 assays) and HSB (ICAM-1 assays) cell lines were obtained from American Type Culture Collection; endogenous in cells; host or cells: HSB cells (ATCC)
# Sequence (P20701 26-1170): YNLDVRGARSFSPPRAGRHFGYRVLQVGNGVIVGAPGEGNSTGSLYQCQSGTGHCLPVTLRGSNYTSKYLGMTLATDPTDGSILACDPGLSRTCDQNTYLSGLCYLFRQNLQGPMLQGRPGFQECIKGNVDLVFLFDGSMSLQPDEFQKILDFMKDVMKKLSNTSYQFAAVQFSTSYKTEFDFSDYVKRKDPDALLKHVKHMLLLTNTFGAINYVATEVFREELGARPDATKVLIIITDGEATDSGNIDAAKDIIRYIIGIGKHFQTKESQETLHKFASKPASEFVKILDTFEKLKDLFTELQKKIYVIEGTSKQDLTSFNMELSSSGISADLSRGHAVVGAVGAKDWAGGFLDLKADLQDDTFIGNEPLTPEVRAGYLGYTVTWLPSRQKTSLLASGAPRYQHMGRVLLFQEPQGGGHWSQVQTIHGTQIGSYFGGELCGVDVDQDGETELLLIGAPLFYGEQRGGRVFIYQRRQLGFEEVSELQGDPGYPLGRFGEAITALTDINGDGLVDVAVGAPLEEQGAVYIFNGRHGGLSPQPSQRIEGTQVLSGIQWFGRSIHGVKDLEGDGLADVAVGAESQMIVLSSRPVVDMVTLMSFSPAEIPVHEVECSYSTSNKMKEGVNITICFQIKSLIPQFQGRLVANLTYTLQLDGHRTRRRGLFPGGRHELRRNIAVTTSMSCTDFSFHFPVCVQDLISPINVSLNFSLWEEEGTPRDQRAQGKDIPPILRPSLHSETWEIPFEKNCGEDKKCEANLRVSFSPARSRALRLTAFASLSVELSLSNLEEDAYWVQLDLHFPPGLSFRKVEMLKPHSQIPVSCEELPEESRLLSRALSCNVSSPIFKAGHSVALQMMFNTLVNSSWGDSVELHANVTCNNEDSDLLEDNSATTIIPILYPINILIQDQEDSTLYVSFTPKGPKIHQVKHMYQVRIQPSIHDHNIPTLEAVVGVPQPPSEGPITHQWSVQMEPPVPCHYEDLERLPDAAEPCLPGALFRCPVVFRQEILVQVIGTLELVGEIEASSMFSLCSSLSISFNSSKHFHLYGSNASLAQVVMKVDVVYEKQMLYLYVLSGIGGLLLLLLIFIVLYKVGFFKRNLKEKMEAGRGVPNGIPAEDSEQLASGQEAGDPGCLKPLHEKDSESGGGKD
# Sequence (P05107 23-769): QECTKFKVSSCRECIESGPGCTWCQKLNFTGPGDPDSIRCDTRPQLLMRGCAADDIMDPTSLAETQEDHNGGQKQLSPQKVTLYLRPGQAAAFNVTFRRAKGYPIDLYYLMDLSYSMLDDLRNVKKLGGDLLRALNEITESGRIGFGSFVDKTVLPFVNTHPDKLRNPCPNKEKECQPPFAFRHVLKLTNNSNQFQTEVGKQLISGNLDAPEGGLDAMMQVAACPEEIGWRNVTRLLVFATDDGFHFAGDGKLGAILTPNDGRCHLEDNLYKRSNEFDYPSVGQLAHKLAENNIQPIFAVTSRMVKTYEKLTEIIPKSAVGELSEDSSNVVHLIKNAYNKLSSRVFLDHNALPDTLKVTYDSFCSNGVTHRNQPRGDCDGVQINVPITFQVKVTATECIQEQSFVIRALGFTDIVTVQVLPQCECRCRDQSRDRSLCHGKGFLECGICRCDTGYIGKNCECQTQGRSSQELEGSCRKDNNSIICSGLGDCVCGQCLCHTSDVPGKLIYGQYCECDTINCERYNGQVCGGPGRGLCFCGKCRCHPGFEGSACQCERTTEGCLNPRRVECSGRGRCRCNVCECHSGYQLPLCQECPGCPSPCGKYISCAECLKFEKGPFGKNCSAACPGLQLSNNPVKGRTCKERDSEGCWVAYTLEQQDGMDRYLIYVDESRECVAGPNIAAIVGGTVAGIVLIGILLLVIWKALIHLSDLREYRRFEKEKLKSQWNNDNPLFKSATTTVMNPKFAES
# test: Static cell adhesion assay, HSB cells on ICAM-1 (αLβ2/ICAM-1; LFA-1)
# Assay type: cell-based
# conditions: Dose 3 μM, compound and THI0349 at the same concentration; ratio >1 = more potent agonist
Below is a list of entries, each paired with its recorded LAD Raw Fluorescence Units against LFA-1; Ratio of raw counts Compound/THI0349 value.
API: value field is a number in fold increased response; no unit string.

These recorded examples may help you get a feel for the data.
>  <smiles code>
COc1ccc(CCOC(=O)N2CCN(CC(=O)N(Cc3ccc(OC)cc3)Cc3ccc(OC)cc3)CC2)cc1

>  <numeric value>
4.6

$$$$
>  <smiles code>
COc1ccc(CN(Cc2ccc(OC)cc2)C(=O)OCCN2CC(=O)N(CCOC(=O)N(Cc3ccc(OC)cc3)Cc3ccc(OC)cc3)CC2=O)cc1

>  <numeric value>
7.8

$$$$
>  <smiles code>
COc1cccc(CN(Cc2cccc(OC)c2)C(=O)CN2CCN(C(=O)OCc3ccccc3)CC2)c1

>  <numeric value>
1.42

$$$$
>  <smiles code>
COc1ccc(CN(Cc2ccc(O)cc2)C(=O)CN2CCN(C(=O)OCc3ccccc3)CC2)cc1

>  <numeric value>
1.3

$$$$
>  <smiles code>
COc1ccc(CN(Cc2ccc(N(C)C)cc2)C(=O)CN2CCN(C(=O)OCc3cccc(OC)c3)CC2=O)cc1

>  <numeric value>
4.2

$$$$

Below: the item to evaluate.
Consider COc1ccc(CN(Cc2ccc(OC)cc2)C(=O)CN2CCN(Cc3cccc(OC)c3)CC2=O)cc1 . Its measured LAD Raw Fluorescence Units against LFA-1; Ratio of raw counts Compound/THI0349 is 1.1

* * *

# system under test: α4β1/VCAM-1 (Homo sapiens, UniProt P05556+P13612)
# Construct: The Jurkat (VCAM-1 assays) and HSB (ICAM-1 assays) cell lines were obtained from American Type Culture Collection; endogenous in cells; host or cells: Jurkat cells (ATCC)
# Sequence (P13612 34-1032): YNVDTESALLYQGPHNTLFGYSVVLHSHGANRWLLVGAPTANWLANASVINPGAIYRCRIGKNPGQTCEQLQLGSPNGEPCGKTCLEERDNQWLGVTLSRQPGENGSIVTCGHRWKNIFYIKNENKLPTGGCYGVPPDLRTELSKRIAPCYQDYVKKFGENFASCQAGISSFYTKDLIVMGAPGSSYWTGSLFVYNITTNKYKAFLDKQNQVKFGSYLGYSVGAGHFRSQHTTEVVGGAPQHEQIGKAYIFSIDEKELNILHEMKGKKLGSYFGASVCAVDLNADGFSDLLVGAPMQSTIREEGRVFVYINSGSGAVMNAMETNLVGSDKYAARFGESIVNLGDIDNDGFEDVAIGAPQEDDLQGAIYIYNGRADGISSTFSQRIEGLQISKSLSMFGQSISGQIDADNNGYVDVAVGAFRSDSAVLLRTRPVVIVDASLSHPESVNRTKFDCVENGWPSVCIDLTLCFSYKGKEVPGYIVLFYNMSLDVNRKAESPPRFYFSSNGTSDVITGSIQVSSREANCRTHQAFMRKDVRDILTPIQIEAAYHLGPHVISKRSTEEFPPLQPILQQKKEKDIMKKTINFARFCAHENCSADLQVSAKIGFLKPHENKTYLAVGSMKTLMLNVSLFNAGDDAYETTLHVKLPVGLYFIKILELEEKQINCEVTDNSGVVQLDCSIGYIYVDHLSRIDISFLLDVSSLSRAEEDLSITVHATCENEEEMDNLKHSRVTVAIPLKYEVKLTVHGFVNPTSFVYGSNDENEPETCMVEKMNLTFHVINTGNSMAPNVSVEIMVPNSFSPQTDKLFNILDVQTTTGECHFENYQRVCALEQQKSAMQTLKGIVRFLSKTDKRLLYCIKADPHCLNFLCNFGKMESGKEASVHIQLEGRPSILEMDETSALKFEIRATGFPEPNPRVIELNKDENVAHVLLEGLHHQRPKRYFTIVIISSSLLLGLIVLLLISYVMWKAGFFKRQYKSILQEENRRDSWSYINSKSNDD
# Sequence (P05556 21-798): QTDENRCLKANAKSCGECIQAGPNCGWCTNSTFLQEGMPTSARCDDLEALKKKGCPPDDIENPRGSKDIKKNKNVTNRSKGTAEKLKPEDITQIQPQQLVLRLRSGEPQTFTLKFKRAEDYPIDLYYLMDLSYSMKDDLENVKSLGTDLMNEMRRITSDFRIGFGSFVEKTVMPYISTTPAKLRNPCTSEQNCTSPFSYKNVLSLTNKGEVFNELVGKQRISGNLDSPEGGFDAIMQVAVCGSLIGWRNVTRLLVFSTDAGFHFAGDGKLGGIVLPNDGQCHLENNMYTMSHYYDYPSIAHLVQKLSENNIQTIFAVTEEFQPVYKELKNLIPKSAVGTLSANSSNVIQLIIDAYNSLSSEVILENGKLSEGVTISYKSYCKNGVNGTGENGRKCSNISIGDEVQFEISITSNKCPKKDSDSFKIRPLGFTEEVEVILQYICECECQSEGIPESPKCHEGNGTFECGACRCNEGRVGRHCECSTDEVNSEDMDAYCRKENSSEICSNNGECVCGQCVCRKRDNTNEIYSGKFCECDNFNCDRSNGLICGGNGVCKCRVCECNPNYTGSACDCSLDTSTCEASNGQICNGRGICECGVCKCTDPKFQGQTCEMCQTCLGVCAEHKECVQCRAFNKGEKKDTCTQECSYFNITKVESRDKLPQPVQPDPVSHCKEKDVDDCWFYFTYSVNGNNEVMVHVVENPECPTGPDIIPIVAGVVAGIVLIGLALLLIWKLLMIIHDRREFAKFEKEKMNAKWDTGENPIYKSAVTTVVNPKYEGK
# test: Static cell adhesion assay, Jurkat cells on VCAM-1 (α4β1/VCAM-1)
# Type: cell-based
# conditions: ratio compound activity/control THI0019 (average 33 μM) run on the same plate
# Protocol: For in vitro cell adhesion assays, compounds were dissolved in DMSO to make a series of stock solutions such that a 1:100 dilution in assay buffer would yield the desired final working concentrations in 1% DMSO (vehicle). Human VCAM-1 and ICAM-1 were purchased from R&D Systems (Minneapolis, MN). […] Assays were performed as previously described in 1. […] This ligand concentration corresponded approximately to that which would yield≤ 5% adhesion as determined by dose-response curves. […]
measurement name: Average Ratio Compound to THI0019 (Activity against CS1)

These recorded examples may help you get a feel for the data.
>  <smiles code>
COc1cccc(CN(Cc2cccc(OC)c2)C(=O)CN2CC(=O)N(CC(=O)N(Cc3cccc(OC)c3)Cc3cccc(OC)c3)CC2=O)c1

>  <system under test>
α4β1/VCAM-1 (Homo sapiens, UniProt P05556+P13612)

>  <result>
Group I (Group I< or =1)

$$$$
>  <smiles code>
O=C(CCCCN1CCN(C(=O)OCc2ccccc2)CC1)N(Cc1cccs1)Cc1cccs1

>  <system under test>
α4β1/VCAM-1 (Homo sapiens, UniProt P05556+P13612)

>  <result>
Group I (Group I< or =1)

$$$$
>  <smiles code>
COc1ccc(CN(Cc2ccc(N(C)C)cc2)C(=O)OCCN2CC(=O)N(CCOC(=O)N(Cc3ccc(OC)cc3)Cc3ccc(N(C)C)cc3)CC2=O)cc1

>  <system under test>
α4β1/VCAM-1 (Homo sapiens, UniProt P05556+P13612)

>  <result>
Group I (Group I< or =1)

$$$$
>  <smiles code>
COc1cccc(CN(Cc2cccc(OC)c2)C(=O)CN2CCN(C(=O)OCc3ccccc3)CC2)c1

>  <system under test>
α4β1/VCAM-1 (Homo sapiens, UniProt P05556+P13612)

>  <result>
Group I (Group I< or =1)

$$$$
>  <smiles code>
CN(C)c1ccc(CN(Cc2ccc(N(C)C)cc2)C(=O)CN2CC(=O)N(CC(=O)N(Cc3ccc(N(C)C)cc3)Cc3ccc(N(C)C)cc3)CC2=O)cc1

>  <system under test>
α4β1/VCAM-1 (Homo sapiens, UniProt P05556+P13612)

>  <result>
Group I (Group I< or =1)

$$$$

Consider COc1cccc(CN(Cc2cccc(OC)c2)C(=O)OCCN2CCN(CCOC(=O)N(Cc3cccc(OC)c3)Cc3cccc(OC)c3)CC2)c1 . Its measured Average Ratio Compound to THI0019 (Activity against CS1) is Group I (Group I< or =1)

Consider COc1ccc(CN(Cc2ccc(OC)cc2)C(=O)CN2CCN(CC(=O)N(Cc3ccc(OC)cc3)Cc3ccc(OC)cc3)C(=O)C2)cc1 . Its measured Average Ratio Compound to THI0019 (Activity against CS1) is Group I (Group I< or =1)

Consider COc1ccc(CN(Cc2ccc(OC)cc2)C(=O)OCCN2CC(=O)N(CCOC(=O)N(Cc3ccc(OC)cc3)Cc3ccc(OC)cc3)CC2=O)cc1 . Its measured Average Ratio Compound to THI0019 (Activity against CS1) is Group I (Group I< or =1)

Consider COc1ccc(CN(Cc2ccc(OC)cc2)C(=O)CCCN2CCN(C(=O)OCc3ccccc3)CC2)cc1 . Its measured Average Ratio Compound to THI0019 (Activity against CS1) is Group I (Group I< or =1)

Consider COc1ccc(CN(Cc2ccc(OC)cc2)C(=O)CN2CCN(CC(=O)N(Cc3ccc(OC)cc3)Cc3ccc(OC)cc3)CC2)cc1 . Its measured Average Ratio Compound to THI0019 (Activity against CS1) is Group I (Group I< or =1)

Consider O=C(CN1CCN(C(=O)OCc2ccccc2)CC1)N(Cc1ccc(O)cc1)Cc1ccc(O)cc1 . Its measured Average Ratio Compound to THI0019 (Activity against CS1) is Group I (Group I< or =1)

* * *

# system under test: α4β1/VCAM-1 (Homo sapiens, UniProt P05556+P13612)
# Construct: The Jurkat (VCAM-1 assays) and HSB (ICAM-1 assays) cell lines were obtained from American Type Culture Collection; endogenous in cells; host or cells: Jurkat cells (ATCC)
# test: Static cell adhesion assay, Jurkat cells on VCAM-1 (α4β1/VCAM-1)
# Format: cell-based
# conditions: ratio compound activity/control THI0019 (average 33 μM) run on the same plate
measurement name: Average Ratio Compound to THI0019 (Activity against CS1)

>  <smiles code>
COc1cccc(CN(Cc2ccc(N(C)C)cc2)C(=O)OCCN2CC(=O)N(CCOC(=O)N(Cc3ccc(N(C)C)cc3)Cc3cccc(OC)c3)CC2=O)c1

>  <result>
Group I (Group I< or =1)

$$$$
>  <smiles code>
COc1cccc(CN(Cc2cccc(OC)c2)C(=O)OCCN2CC(=O)N(CCOC(=O)N(Cc3cccc(OC)c3)Cc3cccc(OC)c3)CC2=O)c1

>  <result>
Group I (Group I< or =1)

$$$$

* * *

# system under test: LFA-1 (Homo sapiens, UniProt P05107+P20701)
# Construct: The Jurkat (VCAM-1 assays) and HSB (ICAM-1 assays) cell lines were obtained from American Type Culture Collection; endogenous in cells; host or cells: HSB cells (ATCC)
# test: Static cell adhesion assay, HSB cells on ICAM-1 (αLβ2/ICAM-1; LFA-1)
# Format: cell-based
# conditions: Dose 3 μM, compound and THI0349 at the same concentration; ratio >1 = more potent agonist
measurement name: LAD Raw Fluorescence Units against LFA-1; Ratio of raw counts Compound/THI0349 (fold increased response)
API: value field is a number in fold increased response; no unit string.

>  <smiles code>
COc1ccc(CN(Cc2ccc(OC)cc2)C(=O)CN2CCN(C(=O)OCc3cccc(OC)c3)CC2)cc1

>  <numeric value>
2.2

$$$$
>  <smiles code>
COc1ccc(CN(Cc2ccc(OC)cc2)C(=O)CCCCN2CCN(C(=O)OCc3ccccc3)CC2)cc1

>  <numeric value>
4.3

$$$$
>  <smiles code>
COc1cccc(CN(Cc2cccc(OC)c2)C(=O)CCCCN2CCN(C(=O)OCc3ccccc3)CC2)c1

>  <numeric value>
3.9

$$$$
>  <smiles code>
COc1ccc(CN(Cc2ccc(N(C)C)cc2)C(=O)CN2CCN(C(=O)OCc3ccccc3)CC2)cc1

>  <numeric value>
1.2

$$$$
>  <smiles code>
COc1cccc(CN(Cc2ccc(N(C)C)cc2)C(=O)OCCN2CC(=O)N(CCOC(=O)N(Cc3ccc(N(C)C)cc3)Cc3cccc(OC)c3)CC2=O)c1

>  <numeric value>
7.8

$$$$
>  <smiles code>
COc1ccc(CN(Cc2ccc(N(C)C)cc2)C(=O)CN2CCN(C(=O)c3cccc(OC)c3)CC2=O)cc1

>  <numeric value>
1.2

$$$$

Consider COc1ccc(CN(Cc2ccc(OC)cc2)C(=O)CCCN2CCN(C(=O)OCc3ccccc3)CC2)cc1 . Its measured LAD Raw Fluorescence Units against LFA-1; Ratio of raw counts Compound/THI0349 is 3

Consider COc1ccc(CN(Cc2ccc(OC)cc2)C(=O)CN2CCN(C(=O)OCc3ccccc3)CC2)cc1 . Its measured LAD Raw Fluorescence Units against LFA-1; Ratio of raw counts Compound/THI0349 is 3.3
